target: IDH1 R132H enzyme (Homo sapiens (Human), UniProt O75874, R132H); assay: Mutant IDH1 R132H biochemical assay; settings: NADPH consumption, luminescent readout; 1.5 nM enzyme, 1 μM NADPH, 250 μM α-KG, 30 minutes, 32° C.
Sequence (O75874 whole entry R132H): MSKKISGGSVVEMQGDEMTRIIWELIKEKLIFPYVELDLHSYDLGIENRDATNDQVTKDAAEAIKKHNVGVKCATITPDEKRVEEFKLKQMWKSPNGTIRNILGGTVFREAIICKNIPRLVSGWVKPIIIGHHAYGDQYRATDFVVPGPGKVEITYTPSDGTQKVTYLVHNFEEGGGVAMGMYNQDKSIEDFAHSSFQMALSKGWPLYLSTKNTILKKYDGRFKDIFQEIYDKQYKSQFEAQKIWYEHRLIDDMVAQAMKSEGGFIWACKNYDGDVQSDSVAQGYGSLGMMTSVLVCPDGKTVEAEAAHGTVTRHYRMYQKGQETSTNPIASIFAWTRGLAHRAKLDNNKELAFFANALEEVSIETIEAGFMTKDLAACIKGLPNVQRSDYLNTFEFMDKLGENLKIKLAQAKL
pIC50: −log10 of the molar value.
Endpoint name: pIC50

Solved entries:
Chemical smiles | pIC50
COc1cc2c(cc1CCC(=O)O)nc(Nc1ccc(OC(C)C)cc1)n2[C@@H]1C[C@H](C)CC[C@H]1C(C)C | 5.55
COc1cc2c(cc1C(=O)O)nc(Nc1ccc(C(C)C)cc1)n2[C@@H]1C[C@H](C)CC[C@H]1C(C)C | 7.89
Cc1cc2c(cc1CC(=O)O)nc(Nc1ccc(OC(C)C)cc1)n2[C@@H]1C[C@H](C)CC[C@H]1C(C)C | 7.52

1: COC(=O)Cc1cc2nc(Nc3ccc(C(C)C)cc3)n([C@@H]3C[C@H](C)CC[C@H]3C(C)C)c2cc1OC
2: Cc1cc2c(cc1C(=O)O)nc(Nc1ccc(OC(F)(F)F)cc1)n2[C@@H]1C[C@H](C)CC[C@H]1C(C)C
3: COC(=O)CCc1ccc2c(c1)nc(Nc1ccc(OC(C)C)cc1)n2[C@@H]1C[C@H](C)CC[C@H]1C(C)C
4: COC(=O)CCc1ccc2c(c1)nc(Nc1ccc(C(C)C)cc1)n2[C@@H]1C[C@H](C)CC[C@H]1C(C)C
5: COc1cc2c(cc1CC(=O)O)nc(Nc1ccc(OC(F)(F)F)cc1)n2[C@@H]1C[C@H](C)CC[C@H]1C(C)C
Q) Arrange these 5 compounds in increasing order of pIC50. Arrange the labels as the request states and list them.
A) 3, 4, 1, 5, 2

====

biological target: IDH1 R132H enzyme (Homo sapiens (Human), UniProt O75874, R132H); assay: Mutant IDH1 R132H biochemical assay; details: NADPH consumption, luminescent readout; 1.5 nM enzyme, 1 μM NADPH, 250 μM α-KG, 30 minutes, 32° C.
Endpoint name: IC50 (nM)

Solved entries:
Chemical smiles | Test system | Unit abbrev | IC50
CC(C)[C@@H]1CC[C@@H](C)C[C@H]1n1c(Nc2ccc(OC(F)(F)F)cc2)nc2cc(C(=O)O)ccc21 | IDH1 R132H enzyme (Homo sapiens (Human), UniProt O75874, R132H) | nM | 4
COC(=O)c1cc2nc(Nc3ccc(C(C)C)cc3)n([C@@H]3C[C@H](C)CC[C@H]3C(C)C)c2cc1OC | IDH1 R132H enzyme (Homo sapiens (Human), UniProt O75874, R132H) | nM | 130
COC(=O)Cc1cc2nc(Nc3ccc(OC(F)(F)F)cc3)n([C@@H]3C[C@H](C)CC[C@H]3C(C)C)c2cc1OC | IDH1 R132H enzyme (Homo sapiens (Human), UniProt O75874, R132H) | nM | 70
COC(=O)Cc1ccc2c(c1)nc(Nc1ccc(OC(C)C)cc1)n2[C@@H]1C[C@H](C)CC[C@H]1C(C)C | IDH1 R132H enzyme (Homo sapiens (Human), UniProt O75874, R132H) | nM | 300
CC(C)c1ccc(Nc2nc3cc(CCC(=O)O)ccc3n2[C@@H]2C[C@H](C)CC[C@H]2C(C)C)cc1 | IDH1 R132H enzyme (Homo sapiens (Human), UniProt O75874, R132H) | nM | 12
CC(C)Oc1ccc(Nc2nc3cc(CC(=O)O)ccc3n2[C@@H]2C[C@H](C)CC[C@H]2C(C)C)cc1 | IDH1 R132H enzyme (Homo sapiens (Human), UniProt O75874, R132H) | nM | 45

I: Cc1cc2c(cc1CC(=O)O)nc(Nc1ccc(OC(F)(F)F)cc1)n2[C@@H]1C[C@H](C)CC[C@H]1C(C)C
II: COC(=O)Cc1cc2nc(Nc3ccc(OC(C)C)cc3)n([C@@H]3C[C@H](C)CC[C@H]3C(C)C)c2cc1OC
III: COC(=O)Cc1cc2nc(Nc3ccc(C(C)C)cc3)n([C@@H]3C[C@H](C)CC[C@H]3C(C)C)c2cc1C
Q) Arrange these 3 compounds in increasing order of IC50. Arrange the labels as the request states and list them.
A) I, III, II
(I: 6.3 nM, III: 35 nM, II: 120 nM)
